Tested on: PC-3 PIP/flu tumor-bearing mice
experiment_notes: Biodistribution study in PC-3 PIP/flu tumor-bearing mice
Assay type: in vivo, athymic nude Balb/c mice
run_parameters: 4 h p.i., PSMA-negative tumor xenograft, mice
endpoint_label: PC-3 flu Tumor (% IA/g)
Your answer is read as % IA/g, so omit the unit and give the number.

Fill in: PC-3 flu Tumor of CC(C)Cc1ccc(C(C)C(=O)NCCCCC(NC(=O)CN2CCN(CC(=O)O)CCN(CC(=O)O)CCN(CC(=O)O)CC2)C(=O)NCC2CCC(C(=O)NC(Cc3ccc4ccccc4c3)C(=O)NCCCCC(NC(=O)NC(CCC(=O)O)C(=O)O)C(=O)O)CC2)cc1 (centres unmarked) [^177Lu-Ibu-PSMA, metal not drawn] is ___
2.19

Fill in: PC-3 flu Tumor of CC(C)Cc1ccc(C(C)C(=O)NC(CCN)C(=O)NCCCCC(NC(=O)CN2CCN(CC(=O)O)CCN(CC(=O)O)CCN(CC(=O)O)CC2)C(=O)NCC2CCC(C(=O)NC(Cc3ccc4ccccc4c3)C(=O)NCCCCC(NC(=O)NC(CCC(=O)O)C(=O)O)C(=O)O)CC2)cc1 (centres unmarked) [^177Lu-Ibu-DAB-PSMA, metal not drawn] is ___
1.19

###

Tested on: PC-3 PIP/flu tumor-bearing mice
experiment_notes: Biodistribution study in PC-3 PIP/flu tumor-bearing mice
Assay type: in vivo, athymic nude Balb/c mice
run_parameters: 4 h p.i., PC-3 PIP/flu tumor-bearing mice
endpoint_label: Muscle (% IA/g)
Your answer is read as % IA/g, so omit the unit and give the number.

Fill in: Muscle of CC(C)Cc1ccc(C(C)C(=O)NC(CC(=O)O)C(=O)NCCCCC(NC(=O)CN2CCN(CC(=O)O)CCN(CC(=O)O)CCN(CC(=O)O)CC2)C(=O)NCC2CCC(C(=O)NC(Cc3ccc4ccccc4c3)C(=O)NCCCCC(NC(=O)NC(CCC(=O)O)C(=O)O)C(=O)O)CC2)cc1 (stereo not drawn) [^177Lu-Ibu-Dα-PSMA, metal not drawn] is ___
0.35

Fill in: Muscle of CC(C)Cc1ccc(C(C)C(=O)NCC[C@H](NC(=O)CN2CCN(CC(=O)O)CCN(CC(=O)O)CCN(CC(=O)O)CC2)C(=O)NCC2CCC(C(=O)N[C@@H](Cc3ccc4ccccc4c3)C(=O)NCCCC[C@H](NC(=O)N[C@@H](CCC(=O)O)C(=O)O)C(=O)O)CC2)cc1 (stereo partly drawn) [^177Lu-Ibu-sPSMA, metal not drawn] is ___
0.84

Fill in: Muscle of CC(C)Cc1ccc(C(C)C(=O)NC(CC(=O)NCCCCC(NC(=O)CN2CCN(CC(=O)O)CCN(CC(=O)O)CCN(CC(=O)O)CC2)C(=O)NCC2CCC(C(=O)NC(Cc3ccc4ccccc4c3)C(=O)NCCCCC(NC(=O)NC(CCC(=O)O)C(=O)O)C(=O)O)CC2)C(=O)O)cc1 (stereo not drawn) [^177Lu-Ibu-Dβ-PSMA, metal not drawn] is ___
1.79

Fill in: Muscle of CC(C)Cc1ccc(C(C)C(=O)NC(CCN)C(=O)NCCCCC(NC(=O)CN2CCN(CC(=O)O)CCN(CC(=O)O)CCN(CC(=O)O)CC2)C(=O)NCC2CCC(C(=O)NC(Cc3ccc4ccccc4c3)C(=O)NCCCCC(NC(=O)NC(CCC(=O)O)C(=O)O)C(=O)O)CC2)cc1 (stereo not drawn) [^177Lu-Ibu-DAB-PSMA, metal not drawn] is ___
0.54

Fill in: Muscle of CC(C)Cc1ccc(C(C)C(=O)NCCCCC(NC(=O)CN2CCN(CC(=O)O)CCN(CC(=O)O)CCN(CC(=O)O)CC2)C(=O)NCC2CCC(C(=O)NC(Cc3ccc4ccccc4c3)C(=O)NCCCCC(NC(=O)NC(CCC(=O)O)C(=O)O)C(=O)O)CC2)cc1 (stereo not drawn) [^177Lu-Ibu-PSMA, metal not drawn] is ___
0.97

Fill in: Muscle of CC(C)Cc1ccc(C(C)C(=O)NC(CC(N)=O)C(=O)NCCCCC(NC(=O)CN2CCN(CC(=O)O)CCN(CC(=O)O)CCN(CC(=O)O)CC2)C(=O)NCC2CCC(C(=O)NC(Cc3ccc4ccccc4c3)C(=O)NCCCCC(NC(=O)NC(CCC(=O)O)C(=O)O)C(=O)O)CC2)cc1 (stereo not drawn) [^177Lu-Ibu-N-PSMA, metal not drawn] is ___
0.47

###

Tested on: PC-3 PIP/flu tumor-bearing mice
experiment_notes: Biodistribution study in PC-3 PIP/flu tumor-bearing mice
Format: in vivo, athymic nude Balb/c mice
run_parameters: 4 h p.i., PC-3 PIP/flu tumor-bearing mice
Answer each item with its documented Tumor-to-blood.
Number only, no unit.

Fill in: Tumor-to-blood of CC(C)Cc1ccc(C(C)C(=O)NC(CC(=O)NCCCCC(NC(=O)CN2CCN(CC(=O)O)CCN(CC(=O)O)CCN(CC(=O)O)CC2)C(=O)NCC2CCC(C(=O)NC(Cc3ccc4ccccc4c3)C(=O)NCCCCC(NC(=O)NC(CCC(=O)O)C(=O)O)C(=O)O)CC2)C(=O)O)cc1 (stereo not drawn) [^177Lu-Ibu-Dβ-PSMA, metal not drawn] is ___
5.03

Fill in: Tumor-to-blood of CC(C)Cc1ccc(C(C)C(=O)NCC[C@H](NC(=O)CN2CCN(CC(=O)O)CCN(CC(=O)O)CCN(CC(=O)O)CC2)C(=O)NCC2CCC(C(=O)N[C@@H](Cc3ccc4ccccc4c3)C(=O)NCCCC[C@H](NC(=O)N[C@@H](CCC(=O)O)C(=O)O)C(=O)O)CC2)cc1 (stereo partly drawn) [^177Lu-Ibu-sPSMA, metal not drawn] is ___
14

Fill in: Tumor-to-blood of CC(C)Cc1ccc(C(C)C(=O)NCCCCC(NC(=O)CN2CCN(CC(=O)O)CCN(CC(=O)O)CCN(CC(=O)O)CC2)C(=O)NCC2CCC(C(=O)NC(Cc3ccc4ccccc4c3)C(=O)NCCCCC(NC(=O)NC(CCC(=O)O)C(=O)O)C(=O)O)CC2)cc1 (stereo not drawn) [^177Lu-Ibu-PSMA, metal not drawn] is ___
14.1

Fill in: Tumor-to-blood of CC(C)Cc1ccc(C(C)C(=O)NC(CC(=O)O)C(=O)NCCCCC(NC(=O)CN2CCN(CC(=O)O)CCN(CC(=O)O)CCN(CC(=O)O)CC2)C(=O)NCC2CCC(C(=O)NC(Cc3ccc4ccccc4c3)C(=O)NCCCCC(NC(=O)NC(CCC(=O)O)C(=O)O)C(=O)O)CC2)cc1 (stereo not drawn) [^177Lu-Ibu-Dα-PSMA, metal not drawn] is ___
22.5

Fill in: Tumor-to-blood of CC(C)Cc1ccc(C(C)C(=O)NC(CCN)C(=O)NCCCCC(NC(=O)CN2CCN(CC(=O)O)CCN(CC(=O)O)CCN(CC(=O)O)CC2)C(=O)NCC2CCC(C(=O)NC(Cc3ccc4ccccc4c3)C(=O)NCCCCC(NC(=O)NC(CCC(=O)O)C(=O)O)C(=O)O)CC2)cc1 (stereo not drawn) [^177Lu-Ibu-DAB-PSMA, metal not drawn] is ___
18.2

Fill in: Tumor-to-blood of CC(C)Cc1ccc(C(C)C(=O)NC(CC(N)=O)C(=O)NCCCCC(NC(=O)CN2CCN(CC(=O)O)CCN(CC(=O)O)CCN(CC(=O)O)CC2)C(=O)NCC2CCC(C(=O)NC(Cc3ccc4ccccc4c3)C(=O)NCCCCC(NC(=O)NC(CCC(=O)O)C(=O)O)C(=O)O)CC2)cc1 (stereo not drawn) [^177Lu-Ibu-N-PSMA, metal not drawn] is ___
20.1

###

Test system: PC-3 PIP/flu tumor-bearing mice
experiment_notes: Biodistribution study in PC-3 PIP/flu tumor-bearing mice
Type: in vivo, athymic nude Balb/c mice
run_parameters: 24 h p.i., PC-3 PIP/flu tumor-bearing mice
endpoint_label: Tumor-to-blood
Number only, no unit.

Fill in: Tumor-to-blood of CC(C)Cc1ccc(C(C)C(=O)NC(CC(N)=O)C(=O)NCCCCC(NC(=O)CN2CCN(CC(=O)O)CCN(CC(=O)O)CCN(CC(=O)O)CC2)C(=O)NCC2CCC(C(=O)NC(Cc3ccc4ccccc4c3)C(=O)NCCCCC(NC(=O)NC(CCC(=O)O)C(=O)O)C(=O)O)CC2)cc1 (stereo not drawn) [^177Lu-Ibu-N-PSMA, metal not drawn] is ___
227

Fill in: Tumor-to-blood of CC(C)Cc1ccc(C(C)C(=O)NC(CCN)C(=O)NCCCCC(NC(=O)CN2CCN(CC(=O)O)CCN(CC(=O)O)CCN(CC(=O)O)CC2)C(=O)NCC2CCC(C(=O)NC(Cc3ccc4ccccc4c3)C(=O)NCCCCC(NC(=O)NC(CCC(=O)O)C(=O)O)C(=O)O)CC2)cc1 (stereo not drawn) [^177Lu-Ibu-DAB-PSMA, metal not drawn] is ___
337

Fill in: Tumor-to-blood of CC(C)Cc1ccc(C(C)C(=O)NCCCCC(NC(=O)CN2CCN(CC(=O)O)CCN(CC(=O)O)CCN(CC(=O)O)CC2)C(=O)NCC2CCC(C(=O)NC(Cc3ccc4ccccc4c3)C(=O)NCCCCC(NC(=O)NC(CCC(=O)O)C(=O)O)C(=O)O)CC2)cc1 (stereo not drawn) [^177Lu-Ibu-PSMA, metal not drawn] is ___
149

Fill in: Tumor-to-blood of CC(C)Cc1ccc(C(C)C(=O)NC(CC(=O)O)C(=O)NCCCCC(NC(=O)CN2CCN(CC(=O)O)CCN(CC(=O)O)CCN(CC(=O)O)CC2)C(=O)NCC2CCC(C(=O)NC(Cc3ccc4ccccc4c3)C(=O)NCCCCC(NC(=O)NC(CCC(=O)O)C(=O)O)C(=O)O)CC2)cc1 (stereo not drawn) [^177Lu-Ibu-Dα-PSMA, metal not drawn] is ___
198

Fill in: Tumor-to-blood of CC(C)Cc1ccc(C(C)C(=O)NCC[C@H](NC(=O)CN2CCN(CC(=O)O)CCN(CC(=O)O)CCN(CC(=O)O)CC2)C(=O)NCC2CCC(C(=O)N[C@@H](Cc3ccc4ccccc4c3)C(=O)NCCCC[C@H](NC(=O)N[C@@H](CCC(=O)O)C(=O)O)C(=O)O)CC2)cc1 (stereo partly drawn) [^177Lu-Ibu-sPSMA, metal not drawn] is ___
173

Fill in: Tumor-to-blood of CC(C)Cc1ccc(C(C)C(=O)NC(CC(=O)NCCCCC(NC(=O)CN2CCN(CC(=O)O)CCN(CC(=O)O)CCN(CC(=O)O)CC2)C(=O)NCC2CCC(C(=O)NC(Cc3ccc4ccccc4c3)C(=O)NCCCCC(NC(=O)NC(CCC(=O)O)C(=O)O)C(=O)O)CC2)C(=O)O)cc1 (stereo not drawn) [^177Lu-Ibu-Dβ-PSMA, metal not drawn] is ___
83.6
